meta.source: paper PMC9693918

Target: MscCAγ (M. sciuri γ-CA) (Mammaliicoccus sciuri, UniProt A0AB37HNM1)
Construct: gene OWO77_11715
Sequence (A0AB37HNM1 1-169): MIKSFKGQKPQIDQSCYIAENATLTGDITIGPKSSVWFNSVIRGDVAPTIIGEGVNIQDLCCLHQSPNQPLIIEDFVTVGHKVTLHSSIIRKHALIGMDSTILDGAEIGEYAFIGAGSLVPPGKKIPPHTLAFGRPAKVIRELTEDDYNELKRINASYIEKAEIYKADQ
Experiment: stopped-flow CO2 hydration assay, phenol red
Format: biochemical
Excerpt: stopped-flow CO2 hydration assay, phenol red on MscCAγ (M. sciuri γ-CA)
propertyName: Ki (nM)
Please give a number only; it is taken to be in nM.

Ask: Form field: Ki recorded for NCCc1ccc(S(N)(=O)=O)cc1 with MscCAγ (M. sciuri γ-CA) (Mammaliicoccus sciuri, UniProt A0AB37HNM1) (enter value)
Result: 176

* * *

Target: MscCAγ (M. sciuri γ-CA) (Mammaliicoccus sciuri)
Construct: gene OWO77_11715
Test: stopped-flow CO2 hydration assay, phenol red
Assay type: biochemical
Conditions: read-out: KI (nM) ^a / MscCAγ
propertyName: Ki (nM)
Provide the reading as a plain figure in nM.

{"compound": "CCN[C@H]1CN(CCCOC)S(=O)(=O)c2sc(S(N)(=O)=O)cc21", "Ki / nM": 100}
{"compound": "NS(=O)(=O)c1cc(Cl)c(Cl)c(S(N)(=O)=O)c1", "Ki / nM": 8580}
{"compound": "NS(=O)(=O)c1ccc(CCNS(=O)(=O)c2ccc([N+](=O)[O-])cc2CO)cc1", "Ki / nM": 83.4}
{"compound": "CCN1CCCC1CNC(=O)c1cc(S(N)(=O)=O)ccc1OC (centres unmarked)", "Ki / nM": 2200}

Next, consider the following compound.
Ask: Give its Ki value. Item: CC(=O)N=c1sc(S(N)(=O)=O)nn1C
Result: 94.5
